# Test system: MDA-MB-468 breast
# procedure.text: NCI-60 one-dose screen, 48 h (100 = growth as untreated, 0 = no growth, -100 = all killed)
# measurement.parameters: 10 µM unless noted
About 83,000 compounds went through this panel and 20% of them were active in at least one assay; those are over-represented in the sample as a whole.
Classify by measured growth: yes (1) if it is equal to or exceeds -20%, no (0) if it is smaller.

| molecule | class.assignment |
| --- | --- |
| COc1cc2c3c(n(C4CCNCC4)c(=O)c2cc1OC)-c1cc2c(cc1C3=O)OCO2 | no (0) |
| CCCCN(CCCC)C(=O)[C@H](CC)[C@@H]1CC[C@@H](C)[C@@H]([C@H](C)[C@@H](O)[C@@H](C)C(=O)[C@H](CC)C2O[C@]3(C=C[C@@H](O)[C@]4(CC[C@@](C)([C@H]5CC[C@](O)(CC)[C@H](C)O5)O4)O3)[C@H](C)C[C@@H]2C)O1 (stereo partly drawn) | no (0) |
| Nc1ccc(-c2ccc(-c3ccccc3N)c3[nH]c4ccccc4c23)cc1 | yes (1) |
| N=C(N)c1ccc(-c2ccc(-c3ccc(Cl)c(Cl)c3)s2)cc1 | no (0) |
| O=C(CN1C(=O)S/C(=C\C(Cl)=C\c2ccccc2)C1=O)NCCc1ccc(O)cc1 | yes (1) |
| N#C/C(=C\c1ccc2c(c1)OCO2)n1nnc2cc(F)c(F)cc21 | yes (1) |
| Cc1ccccc1OCC(O)COc1ccccc1C | yes (1) |
| Cc1nn(-c2ccccc2)c2ncnc(N/N=C/c3ccccc3O)c12 | no (0) |
| CC[C@]1(O)CC2CN(CCc3c([nH]c4ccccc34)[C@@](C(=O)OC)(c3cc4c(cc3OC)N(C)[C@H]3[C@@](O)(C(=O)OC)[C@H](OC(C)=O)[C@]5(CC)C=CCN6CC[C@]43[C@@H]65)C2)C1 (stereo partly drawn) | yes (1) |
| CCN1CCN(C(=S)SCC(=O)Nc2nc3ccc(C)cc3s2)CC1 | yes (1) |
| C=CCn1c(SCC(=O)c2ccc(OC)cc2)nnc1-c1ccc(OC)cc1 | yes (1) |
| COc1ccc2cc(C(=O)c3coc4ccc(O)cc34)ccc2c1 | yes (1) |
| O=C(CCl)Nc1ccc2c(c1)C(=O)c1ccccc1C2=O | yes (1) |

---

# System: MDA-MB-468 breast
# procedure.text: NCI-60 one-dose screen, 48 h (100 = growth as untreated, 0 = no growth, -100 = all killed)
# measurement.parameters: 10 µM unless noted
This is part of a sample that, as a whole, favours compounds with a hit. Of some 83,000 tested, about 20% had one in any assay.
Everything with growth lower than 60% is 0 (no); everything else, including exactly 60%, is 1 (yes).

| compound | class.assignment |
| --- | --- |
| CC(CN(C)C)Oc1ccccc1NC1=C(Cl)C(=O)C(Nc2ccccc2OC(C)CN(C)C)=C(Cl)C1=O (stereo not given) | 0 (no) |
| CC(=O)OC[C@H]1OC(Sc2sc(C(=O)c3ccc(C)cc3)c(N)c2-c2nc3ccccc3s2)[C@H](OC(C)=O)[C@@H](OC(C)=O)[C@@H]1OC(C)=O (stereo not given in full) | 1 (yes) |
| CC(C)C[C@H]1C(=O)O[C@H](C(C)C)C(=O)N(C)[C@@H](C(C)C)C(=O)O[C@H](C(C)C)C(=O)N(C)[C@@H](C(C)C)C(=O)O[C@H](C(C)C)C(=O)N1C | 0 (no) |
| COC(=O)C(CSC(c1ccccc1)(c1ccccc1)c1ccccc1)NC(=O)C(CC(N)=O)NC(=O)OCc1ccccc1 (stereo not given) | 0 (no) |
| COc1ccc(/C=C/c2c(C(=O)/C=C/c3ccc(F)cc3)c(C)nc3ccccc23)cc1 | 0 (no) |
| COc1ccc(-c2nsc3c2NC(=O)CC3c2ccc3c(c2)OCO3)cc1 (stereo not given) | 0 (no) |
| CNc1ccc(CSc2ccc(C)cc2)cc1 | 0 (no) |
| O=C(NNC(=S)Nc1ccccc1)c1ccc(Nc2ncnc3c2cnn3-c2cccc(Br)c2)cc1 | 1 (yes) |
